# target_or_test_system: Mouse VCP (Mus musculus)
# Construct: histidine tag (N); made in house; host or cells: Sf-9 insect cells (baculovirus vector pVL1392)
# test_description: ATPase activity of purified His-tagged VCP, [γ-32P]ATP, liberated phosphate by liquid scintillation
# Assay type: biochemical
# condition_info: compounds of Examples; ATPase inhibitory activity; 500 ng VCP, 100 μM ATP, 37° C., 10 minutes
Counter-ions that a name gives are not always drawn.
parameter: pIC50
// pIC50 is dimensionless: -log10 of concentration (M)

Examples with answers:
compound | observed
CC(C)COc1ccccc1-c1ccc(/N=N/c2cc(S(=O)(=O)O)c3ccccc3c2N)cn1 [Example 67, sodium salt] | 6.89
Nc1c(/N=N/c2ccc(OCc3cccnc3)cc2)cc(S(=O)(=O)O)c2ccccc12 [Example 135, sodium salt] | 6.15
Nc1c(/N=N/c2ccc(-c3cccc4cccnc34)nc2)cc(S(=O)(=O)O)c2ccccc12 [Example 83, sodium salt] | 6.46
Nc1c(/N=N/c2ccc(Cl)cc2Br)cc(S(=O)(=O)O)c2ccccc12 [Example 117, sodium salt] | 6.64
Cc1ccc(C)c(-c2ccc(/N=N/c3cc(S(=O)(=O)O)c4ccccc4c3N)cn2)c1 [Example 34, sodium salt] | 6.56

The measured pIC50 associated with Cc1cc(F)ccc1-c1ccc(/N=N/c2cc(S(=O)(=O)O)c3ccccc3c2N)cn1 [Example 49, sodium salt] reads 6.48

The measured pIC50 associated with Nc1c(/N=N/c2ccc(-c3cccc(CN4CCOCC4)c3)nc2)cc(S(=O)(=O)O)c2ccccc12 [Example 11, sodium salt] reads 6.37

* * *

# target_or_test_system: Mouse VCP (Mus musculus, UniProt Q01853)
# Construct: histidine tag (N); made in house; host or cells: Sf-9 insect cells (baculovirus vector pVL1392)
# Sequence (Q01853 whole entry): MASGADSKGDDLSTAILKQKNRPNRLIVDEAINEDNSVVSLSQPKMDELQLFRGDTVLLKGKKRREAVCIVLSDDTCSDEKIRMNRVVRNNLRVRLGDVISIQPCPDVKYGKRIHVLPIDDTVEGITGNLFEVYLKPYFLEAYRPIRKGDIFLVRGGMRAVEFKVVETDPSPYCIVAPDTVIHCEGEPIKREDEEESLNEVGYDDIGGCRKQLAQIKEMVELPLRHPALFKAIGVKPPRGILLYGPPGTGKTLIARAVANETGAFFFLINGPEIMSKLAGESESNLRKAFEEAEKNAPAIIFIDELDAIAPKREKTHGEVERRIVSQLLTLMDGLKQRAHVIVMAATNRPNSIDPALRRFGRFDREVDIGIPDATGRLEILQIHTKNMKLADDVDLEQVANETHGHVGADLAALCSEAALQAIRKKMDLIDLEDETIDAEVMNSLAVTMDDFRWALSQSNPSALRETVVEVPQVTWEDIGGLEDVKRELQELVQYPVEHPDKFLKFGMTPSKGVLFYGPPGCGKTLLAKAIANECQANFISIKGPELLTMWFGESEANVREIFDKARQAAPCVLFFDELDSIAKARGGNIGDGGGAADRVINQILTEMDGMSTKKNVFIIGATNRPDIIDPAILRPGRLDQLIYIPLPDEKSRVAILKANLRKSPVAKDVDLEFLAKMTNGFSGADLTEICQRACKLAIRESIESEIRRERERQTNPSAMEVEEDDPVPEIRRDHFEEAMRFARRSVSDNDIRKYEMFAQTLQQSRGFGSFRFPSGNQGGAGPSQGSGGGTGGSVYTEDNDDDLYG
# test_description: ATPase activity of purified His-tagged VCP, [γ-32P]ATP, liberated phosphate by liquid scintillation
# Type: biochemical
# condition_info: compounds of Examples; ATPase inhibitory activity; 500 ng VCP, 100 μM ATP, 37° C., 10 minutes
Structures can show the parent of a compound that is named as a salt.
parameter: pIC50
// pIC50 is dimensionless: -log10 of concentration (M)

Examples with answers:
compound | observed
Cc1ccc2cccc(-c3ccc(/N=N/c4cc(S(=O)(=O)O)c5ccccc5c4N)cn3)c2n1 [Example 84, sodium salt] | 6.25
Nc1c(/N=N/c2ccc(-c3cccnc3)nc2-c2cccnc2)cc(S(=O)(=O)O)c2ccccc12 [Example 54, sodium salt] | 5.98
Nc1c(/N=N/c2ccccc2F)cc(S(=O)(=O)O)c2ccccc12 [Example 94, sodium salt] | 5.95

The measured pIC50 associated with CCOC(=O)c1ccc(/N=N/c2cc(S(=O)(=O)O)c3ccccc3c2N)cc1 [Example 103, sodium salt] reads 6.05

The measured pIC50 associated with Nc1c(/N=N/c2ccc(Cl)c(Cl)c2)cc(S(=O)(=O)O)c2ccccc12 [Example 112, sodium salt] reads 6.28

* * *

# target_or_test_system: Mouse VCP (Mus musculus, UniProt Q01853)
# Construct: histidine tag (N); made in house; host or cells: Sf-9 insect cells (baculovirus vector pVL1392)
# test_description: ATPase activity of purified His-tagged VCP, [γ-32P]ATP, liberated phosphate by liquid scintillation
# Format: biochemical
# condition_info: compounds of Examples; ATPase inhibitory activity; 500 ng VCP, 100 μM ATP, 37° C., 10 minutes
Where a name gives a salt, the structure may show the parent alone.
Strictly below 300 nM in IC50: Criterion met. Otherwise: Criterion not met.

molecule | group
Nc1c(/N=N/c2ccc(-c3ccccc3O)nc2)cc(S(=O)(=O)O)c2ccccc12 [Example 63, sodium salt] | Criterion not met
Cc1ccc(F)c(-c2ccc(/N=N/c3cc(S(=O)(=O)O)c4ccccc4c3N)cn2)c1 [Example 59, sodium salt] | Criterion not met

Q: Check if IC50 falls below 300 nM for Nc1c(/N=N/c2ccc(-c3cccc(-c4ccccc4)c3)nc2)cc(S(=O)(=O)O)c2ccccc12 [Example 42, sodium salt] .
Result: Criterion not met

Q: Check if IC50 falls below 300 nM for Nc1c(/N=N/c2ccc(-c3cccs3)nc2)cc(S(=O)(=O)O)c2ccccc12 [Example 17, sodium salt] .
Result: Criterion met

Q: Check if IC50 falls below 300 nM for CCCOc1ccc(F)cc1-c1ccc(/N=N/c2cc(S(=O)(=O)O)c3ccccc3c2N)cn1 [Example 55, sodium salt] .
Result: Criterion met

* * *

Measured pIC50 of individual entries
# target_or_test_system: Mouse VCP (Mus musculus)
# Construct: histidine tag (N); made in house; host or cells: Sf-9 insect cells (baculovirus vector pVL1392)
# test_description: ATPase activity of purified His-tagged VCP, [γ-32P]ATP, liberated phosphate by liquid scintillation
# Format: biochemical
# condition_info: compounds of Examples; ATPase inhibitory activity; 500 ng VCP, 100 μM ATP, 37° C., 10 minutes
Counter-ions that a name gives are not always drawn.
// pIC50 is dimensionless: -log10 of concentration (M)

compound | target_or_test_system | pIC50
Nc1c(/N=N/c2ccc(-c3ccc(Cl)cc3Cl)nc2)cc(S(=O)(=O)O)c2ccccc12 [Example 19, sodium salt] | Mouse VCP (Mus musculus) | 6.75
COc1ccc(/N=N/c2cc(S(=O)(=O)O)c3ccccc3c2N)cn1 [Example 2, sodium salt] | Mouse VCP (Mus musculus) | 6.24

The measured pIC50 associated with Cc1cccc(-c2ccc(/N=N/c3cc(S(=O)(=O)O)c4ccccc4c3N)cn2)c1C [Example 33, sodium salt] reads 6.52

The measured pIC50 associated with Nc1c(/N=N/c2ccc(-c3ccccc3Cl)nc2)cc(S(=O)(=O)O)c2ccccc12 [Example 22, sodium salt] reads 6.71

* * *

# target_or_test_system: Mouse VCP (Mus musculus)
# Construct: histidine tag (N); made in house; host or cells: Sf-9 insect cells (baculovirus vector pVL1392)
# test_description: ATPase activity of purified His-tagged VCP, [γ-32P]ATP, liberated phosphate by liquid scintillation
# Format: biochemical
# condition_info: compounds of Examples; ATPase inhibitory activity; 500 ng VCP, 100 μM ATP, 37° C., 10 minutes
Structures can show the parent of a compound that is named as a salt.
parameter: pIC50
// pIC50 is dimensionless: -log10 of concentration (M)

Examples with answers:
compound | target_or_test_system | observed
Nc1c(/N=N/c2ccccc2OCc2cccnc2)cc(S(=O)(=O)O)c2ccccc12 [Example 142, sodium salt] | Mouse VCP (Mus musculus) | 6.61
COc1cc([N+](=O)[O-])ccc1/N=N/c1cc(S(=O)(=O)O)c2ccccc2c1N [Example 121, sodium salt] | Mouse VCP (Mus musculus) | 5.59
Nc1c(/N=N/c2ccc(-c3cccc(Cl)c3)nc2)cc(S(=O)(=O)O)c2ccccc12 [Example 23, sodium salt] | Mouse VCP (Mus musculus) | 6.49

Let us examine a further case.
The measured pIC50 associated with Nc1c(/N=N/c2ccccc2OCc2ccncc2)cc(S(=O)(=O)O)c2ccccc12 [Example 141, sodium salt] reads 6.13

* * *

# target_or_test_system: Mouse VCP (Mus musculus)
# Construct: histidine tag (N); made in house; host or cells: Sf-9 insect cells (baculovirus vector pVL1392)
# test_description: ATPase activity of purified His-tagged VCP, [γ-32P]ATP, liberated phosphate by liquid scintillation
# Assay type: biochemical
# condition_info: compounds of Examples; ATPase inhibitory activity; 500 ng VCP, 100 μM ATP, 37° C., 10 minutes
Structures can show the parent of a compound that is named as a salt.
parameter: IC50 (nM)
Give the value, in units of nM, as a plain number.

Examples with answers:
compound | target_or_test_system | IC50 / nM
CC(=O)c1cccc(-c2ccc(/N=N/c3cc(S(=O)(=O)O)c4ccccc4c3N)cn2)c1 [Example 15, sodium salt] | Mouse VCP (Mus musculus) | 189
Nc1c(/N=N/c2ccc(-c3ccccc3OCCCNC(=O)c3ccnc(Cl)c3)nc2)cc(S(=O)(=O)O)c2ccccc12 [Example 77, sodium salt] | Mouse VCP (Mus musculus) | 366

The measured IC50 associated with CSc1ccccc1/N=N/c1cc(S(=O)(=O)O)c2ccccc2c1N [Example 133, sodium salt] reads 518

The measured IC50 associated with N#C/C(=C\c1ccc(/N=N/c2cc(S(=O)(=O)O)c3ccccc3c2N)cc1)c1ccccc1 [Example 143, sodium salt] reads 1220

The measured IC50 associated with Nc1c(/N=N/c2ccc3ncccc3c2)cc(S(=O)(=O)O)c2ccccc12 [Example 147, sodium salt] reads 502

The measured IC50 associated with Nc1c(/N=N/c2cccc(OCc3ccncc3)c2)cc(S(=O)(=O)O)c2ccccc12 [Example 139, sodium salt] reads 600

The measured IC50 associated with Nc1c(/N=N/c2ccc(-c3ccc(C(F)(F)F)cc3)nc2)cc(S(=O)(=O)O)c2ccccc12 [Example 21, sodium salt] reads 445

The measured IC50 associated with Nc1c(/N=N/c2ccc(-c3cc(Cl)ccc3O)nc2)cc(S(=O)(=O)O)c2ccccc12 [Example 70, sodium salt] reads 712

The measured IC50 associated with Nc1c(/N=N/c2cccc([N+](=O)[O-])c2)cc(S(=O)(=O)O)c2ccccc12 [Example 96, sodium salt] reads 1630
